# target: wild type human RORγt LBD (Homo sapiens, UniProt P51449)
# Construct: expressed in transfected cells; host or cells: HEK293T
# Sequence (P51449 269-508 limits assumed): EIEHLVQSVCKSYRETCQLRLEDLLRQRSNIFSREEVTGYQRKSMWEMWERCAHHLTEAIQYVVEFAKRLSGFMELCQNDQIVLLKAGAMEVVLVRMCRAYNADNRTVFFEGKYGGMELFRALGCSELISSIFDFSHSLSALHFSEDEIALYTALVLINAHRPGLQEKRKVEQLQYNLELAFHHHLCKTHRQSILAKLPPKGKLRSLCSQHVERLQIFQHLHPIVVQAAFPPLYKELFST
# test_summary: RORγt Reporter Assay (GAL4-RORγt LBD luciferase in HEK293T cells)
# Type: cell-based
# condition_notes: HEK293T cells, compounds for 24 hours; read-out: RORγt reporter Assay, IC50
result_type: pIC50
In simple prose, pIC50 is minus the logarithm base ten of a concentration in moles per litre.

Sample records with pIC50:
COc1c(-c2ccccc2)c(Cl)nc2ccc(C(O)(c3cnnn3C)c3cnc(C)n3C)cc12 (stereo not drawn) [Example 40a] ... 7.64
COCCOc1nc2ccc(C(O)(c3ccc(Cl)cc3)c3cncn3C)cc2c(Cl)c1-c1ccccc1 (stereo not drawn) ... 6.17

Field pIC50 (entry Cc1nc(C)c(C(O)(c2ccc3nc(C#N)c(-c4ccccc4)c(C#N)c3c2)c2cnnn2C)s1 (single isomer, unassigned) [Example 47c] ) reads 7.60

Field pIC50 (entry Cc1cc(C(O)(c2ccc(Cl)cc2)c2cncn2C)cc2c(C#N)c(-c3ccccc3)c(C#N)nc12 (single isomer, unassigned) [Example 23c] ) reads 6.64

====

Listed below: IC50 values for each entry.
# target: wild type human RORγt LBD (Homo sapiens, UniProt P51449)
# Construct: expressed in transfected cells; host or cells: HEK293T
# Sequence (P51449 269-508 limits assumed): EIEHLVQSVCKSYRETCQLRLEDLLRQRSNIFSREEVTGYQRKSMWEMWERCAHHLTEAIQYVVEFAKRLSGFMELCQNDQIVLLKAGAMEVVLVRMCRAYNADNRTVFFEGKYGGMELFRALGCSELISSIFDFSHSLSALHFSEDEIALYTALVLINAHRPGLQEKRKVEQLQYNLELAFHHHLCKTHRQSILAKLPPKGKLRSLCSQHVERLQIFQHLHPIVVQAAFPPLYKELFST
# test_summary: RORγt Reporter Assay (GAL4-RORγt LBD luciferase in HEK293T cells)
# Format: cell-based
# condition_notes: HEK293T cells, compounds for 24 hours; read-out: RORγt reporter Assay, IC50
Supply the numeric figure in µM, leaving out any unit text.

Field IC50 (entry COc1nc2ccc(C(O)(c3cncn3C)C3CCN(C(C)=O)CC3)cc2c(Cl)c1-c1cccc(C(F)(F)F)c1 (single isomer, unassigned) [Example 1c] ) reads 0.11

Field IC50 (entry COc1nc2ccc(C(O)(c3cnnn3C)c3cnc(C)n3C)cc2c(Cl)c1-c1ccccc1 (single isomer, unassigned) [Example 41b] ) reads 0.0086

====

# target: wild type human RORγt LBD (Homo sapiens, UniProt P51449)
# Construct: expressed in transfected cells; host or cells: HEK293T
# test_summary: RORγt Reporter Assay (GAL4-RORγt LBD luciferase in HEK293T cells)
# Format: cell-based
# condition_notes: HEK-293T, read-out: RORγt reporter Assay, % inhibition @ 6 µM, @ 6 µM; HEK293T cells
Listed below: inhibition at 6 µM values for each entry.
Supply the numeric figure in %, leaving out any unit text.

Sample records with inhibition at 6 µM:
COc1nc2ccc(C(O)(c3ncccn3)c3cncn3C)cc2c(OC)c1-c1ccccc1 (stereo not shown) ... 32
COc1c(-c2ccccc2)c(Cl)nc2ccc(C(O)(c3cnnn3C)c3cnc(C)n3C)cc12 (stereo not shown) [Example 40a] ... 104
CC(=O)N1CCC(C(O)(c2cccnc2)c2ccc3nc(C(F)(F)F)c(-c4ccccc4)c(Cl)c3c2)CC1 (stereo not shown) ... 97
COc1nc2ccc(C(O)(c3cncn3C)C3CCN(C(C)=O)CC3)cc2c(C#N)c1-c1cccc(C(F)(F)F)c1 (single isomer, unassigned) ... 91
COc1nc2ccc(C(O)(c3ccc(C(F)(F)F)nc3)c3cncn3C)cc2c(Cl)c1-c1cccc(S(C)(=O)=O)c1 (stereo not shown) ... 32
COc1nc2ccc(C(O)(c3ccc(C(F)(F)F)nc3)c3cncn3C)cc2c(Cl)c1-c1ccc(NS(C)(=O)=O)cc1 (stereo not shown) ... 87

// moving on: another record for inhibition at 6 µM
Readout inhibition at 6 µM for COc1nc2ccc(C(O)(c3cnnn3C)c3cnc(C)n3C)cc2c(Cl)c1-c1ccccc1 (stereo not shown) [Example 41a] , test system wild type human RORγt LBD (Homo sapiens, UniProt P51449), was 98
